Tested on: pulmonary fibrosis
Assay: Pulmonary toxicity (pulmonary fibrosis) in mice
Details: versus Bleomycin Complex
Assay Endpoint: Ratio (by comparison with "Bleomycin Complex")
Answers are plain numbers.

Molecule: Cc1c(N)nc(C(CC(N)=O)NCC(N)C(=O)NCCCNC(C)c2ccccc2)nc1C(=O)NC(C(=O)NC(C)C(O)C(C)C(=O)NC(C(=O)NCCc1nc(-c2nc(C(=O)NCCCN(C)CCCNCc3ccc(Cl)cc3)cs2)cs1)C(C)O)C(OC1OC(CO)C(O)C(O)C1OC1OC(CO)C(O)C(OC(N)=O)C1O)c1cnc[nH]1 (stereo not drawn) [Compound 39]
Target Of Assay: pulmonary fibrosis
Endpoint Value: 0.07

Molecule: CCCCCCCCNC(=O)C(N)CNC(CC(N)=O)c1nc(N)c(C)c(C(=O)NC(C(=O)NC(C)C(O)C(C)C(=O)NC(C(=O)NCCc2nc(-c3nc(C(=O)NCCC[N+](C)(C)CCCN(Cc4ccccc4)Cc4ccccc4)cs3)cs2)C(C)O)C(OC2OC(CO)C(O)C(O)C2OC2OC(CO)C(O)C(OC(N)=O)C2O)c2cnc[nH]2)n1 (stereo not drawn) [Compound 53]
Target Of Assay: pulmonary fibrosis
Endpoint Value: 0

--- query ---
Entry CCCCCCCCNC(=O)C(N)CNC(CC(N)=O)c1nc(N)c(C)c(C(=O)NC(C(=O)NC(C)C(O)C(C)C(=O)NC(C(=O)NCCc2nc(-c3nc(C(=O)NCCCN(C)CCCN(Cc4ccc(OCc5ccccc5)c(OCc5ccccc5)c4)Cc4ccc(OCc5ccccc5)c(OCc5ccccc5)c4)cs3)cs2)C(C)O)C(OC2OC(CO)C(O)C(O)C2OC2OC(CO)C(O)C(OC(N)=O)C2O)c2cnc[nH]2)n1 (stereo not drawn) [Compound 65] , pulmonary fibrosis data, Ratio (by comparison with "Bleomycin Complex") value: 0

* * *

System: pulmonary fibrosis
Assay: Pulmonary toxicity (pulmonary fibrosis) in mice
Settings: ICR mice, 5 mg/kg i.p. once a day for 10 days; points 0, 1, 2, 4, 6
Give measured Grade: Total score of pulmonary fibrosis/total number of samples for each item. Keep answers brief.

Some solved entries appear below for comparison.
Molecule: CCCCN(CCCC)CCCNC(=O)C(N)CNC(CC(N)=O)c1nc(N)c(C)c(C(=O)NC(C(=O)NC(C)C(O)C(C)C(=O)NC(C(=O)NCCc2nc(-c3nc(C(=O)NCCC[N+](CC)(CC)CCCN(Cc4ccccc4)Cc4ccccc4)cs3)cs2)C(C)O)C(OC2OC(CO)C(O)C(O)C2OC2OC(CO)C(O)C(OC(N)=O)C2O)c2cnc[nH]2)n1 (stereo not drawn)
Target Of Assay: pulmonary fibrosis
Endpoint Value: 0/27
--
Molecule: Cc1c(N)nc(C(CC(N)=O)NCC(N)C(=O)NC(C)C)nc1C(=O)NC(C(=O)NC(C)C(O)C(C)C(=O)NC(C(=O)NCCc1nc(-c2nc(C(=O)NCCCNC(C)c3ccccc3)cs2)cs1)C(C)O)C(OC1OC(CO)C(O)C(O)C1OC1OC(CO)C(O)C(OC(N)=O)C1O)c1cnc[nH]1 (stereo not drawn)
Target Of Assay: pulmonary fibrosis
Endpoint Value: 5/24

I have 4 molecules here; please give me Grade: Total score of pulmonary fibrosis/total number of samples for each one.
1. Cc1c(N)nc(C(CC(N)=O)NCC(N)C(=O)NCCCNC(C)c2ccccc2)nc1C(=O)NC(C(=O)NC(C)C(O)C(C)C(=O)NC(C(=O)NCCc1nc(-c2nc(C(=O)NCCCN(C)CCCN(Cc3ccc(OCc4ccccc4)c(OCc4ccccc4)c3)Cc3ccc(OCc4ccccc4)c(OCc4ccccc4)c3)cs2)cs1)C(C)O)C(OC1OC(CO)C(O)C(O)C1OC1OC(CO)C(O)C(OC(N)=O)C1O)c1cnc[nH]1 (stereo not drawn)
2. CCCCCCCCNC(=O)C(N)CNC(CC(N)=O)c1nc(N)c(C)c(C(=O)NC(C(=O)NC(C)C(O)C(C)C(=O)NC(C(=O)NCCc2nc(-c3nc(C(=O)NCCCN(C)CCCNCc4ccc(C#N)cc4)cs3)cs2)C(C)O)C(OC2OC(CO)C(O)C(O)C2OC2OC(CO)C(O)C(OC(N)=O)C2O)c2cnc[nH]2)n1 (stereo not drawn)
3. CCCCCCCCNC(=O)C(N)CNC(CC(N)=O)c1nc(N)c(C)c(C(=O)NC(C(=O)NC(C)C(O)C(C)C(=O)NC(C(=O)NCCc2nc(-c3nc(C(=O)NCCC[N+](C)(C)CCCN(Cc4ccccc4)Cc4ccccc4)cs3)cs2)C(C)O)C(OC2OC(CO)C(O)C(O)C2OC2OC(CO)C(O)C(OC(N)=O)C2O)c2cnc[nH]2)n1 (stereo not drawn)
4. Cc1c(N)nc(C(CC(N)=O)NCC(N)C(=O)NCCCNC(C)c2ccccc2)nc1C(=O)NC(C(=O)NC(C)C(O)C(C)C(=O)NC(C(=O)NCCc1nc(-c2nc(C(=O)NCCCN(C)CCCNCC3CCCCCCC3)cs2)cs1)C(C)O)C(OC1OC(CO)C(O)C(O)C1OC1OC(CO)C(O)C(OC(N)=O)C1O)c1cnc[nH]1 (stereo not drawn)

result:
0/27
0/27
0/27
0/27

I have 2 molecules here; please give me Grade: Total score of pulmonary fibrosis/total number of samples for each one.
1. CCCCN(CCCC)CCCNC(=O)C(N)CNC(CC(N)=O)c1nc(N)c(C)c(C(=O)NC(C(=O)NC(C)C(O)C(C)C(=O)NC(C(=O)NCCc2nc(-c3nc(C(=O)NCCCNC(C)c4ccccc4)cs3)cs2)C(C)O)C(OC2OC(CO)C(O)C(O)C2OC2OC(CO)C(O)C(OC(N)=O)C2O)c2cnc[nH]2)n1 (stereo not drawn)
2. CCCCCCCCNC(=O)C(N)CNC(CC(N)=O)c1nc(N)c(C)c(C(=O)NC(C(=O)NC(C)C(O)C(C)C(=O)NC(C(=O)NCCc2nc(-c3nc(C(=O)NCCCN(C)CCCN(Cc4ccc(OCc5ccccc5)c(OCc5ccccc5)c4)Cc4ccc(OCc5ccccc5)c(OCc5ccccc5)c4)cs3)cs2)C(C)O)C(OC2OC(CO)C(O)C(O)C2OC2OC(CO)C(O)C(OC(N)=O)C2O)c2cnc[nH]2)n1 (stereo not drawn)

result:
1: 0/24; 2: 0/27
